# test-target: T1, soluble human TREM2 (sTREM2) (human, UniProt Q9NZC2 19-157)
# T1 construct: also called soluble TREM2; TREM2 ectodomain
# T1 sequence: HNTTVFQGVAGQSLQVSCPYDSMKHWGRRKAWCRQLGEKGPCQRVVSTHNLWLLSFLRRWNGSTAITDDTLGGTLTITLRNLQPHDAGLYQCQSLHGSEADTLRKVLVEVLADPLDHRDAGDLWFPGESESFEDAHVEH
# procedure-summary: sandwich ELISA: test antibody coated as capture, sTREM2 from BMDM culture supernatant, biotinylated 3.17A9 as detection; normalised to 1.16B8
experimental-readout: binding result

>  <binder>
rat 3.18E5 mIgG2a LALAPG (antibody, V domains shown, Mouse IgG2a LALAPG constant region) VH: EVQLVETGGSLVQPGKSLKLTCATSGFPFSNVWMHWVRQSPEKQLEWIAHIKAKSDNYATYYAESVKGRFTISRDDSKTTIYLQMNSLKEADTAIYYCTGLDYWGQGVMVTVSS VL: DTVLTQAPLSVSVTPGESASISCRSNKSLLGIRDITSLYWYLQKPGKSPQLLIYRMSNLASGVPDRFSGSGSETDFTLKISEVETEDVGVYYCAQFLRYPYTFGPGTKLELK

>  <experimental-readout>
binding result

>  <observed>
no binding

$$$$
>  <binder>
rat 3.27H7 mIgG2a LALAPG (antibody, V domains shown, Mouse IgG2a LALAPG constant region) VH: EVQLVETGGSLVQPGGSLKLTCATSGFPFSNVWLHWIRRSPEKQLEWVAQIKARSDNYATYYAESVKGRFIVSRDDSKTTIYLQMNNLKEEDTAIYYCTGLDYWGQGVMVTVSS VL: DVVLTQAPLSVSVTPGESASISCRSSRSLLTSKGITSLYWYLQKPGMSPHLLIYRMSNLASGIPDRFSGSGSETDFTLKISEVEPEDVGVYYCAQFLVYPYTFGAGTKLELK

>  <experimental-readout>
binding result

>  <observed>
no binding

$$$$
>  <binder>
rat 3.50G1 mIgG2a LALAPG (antibody, V domains shown, Mouse IgG2a LALAPG constant region) VH: EVQLVETGGSLVQPGKSLKLTCATSGFPFSNVWMHWVRQSPEKQLEWIAHIKAKSDNYATYYAESVKGRFTISRDDSKTSIYLQMNSLKDDDTAIYYCTGLDYWGQGVMVTVSS VL: DTVLTQAPLSVSVTPGESASISCRSNKSLLGIRDITSLYWFLQKPGKSPQLLIYRMSNLASGVPDRFSGSGSETDFTLKISEVETEDVGVYYCAQFLRYPYTFGPGTKLELQ

>  <experimental-readout>
binding result

>  <observed>
no binding

$$$$

Hello, the source for this data is patent US20220389097A1, in case you need it.
